- TARGET DESC: UniProtKB P14780
- Sequence (P14780 whole entry): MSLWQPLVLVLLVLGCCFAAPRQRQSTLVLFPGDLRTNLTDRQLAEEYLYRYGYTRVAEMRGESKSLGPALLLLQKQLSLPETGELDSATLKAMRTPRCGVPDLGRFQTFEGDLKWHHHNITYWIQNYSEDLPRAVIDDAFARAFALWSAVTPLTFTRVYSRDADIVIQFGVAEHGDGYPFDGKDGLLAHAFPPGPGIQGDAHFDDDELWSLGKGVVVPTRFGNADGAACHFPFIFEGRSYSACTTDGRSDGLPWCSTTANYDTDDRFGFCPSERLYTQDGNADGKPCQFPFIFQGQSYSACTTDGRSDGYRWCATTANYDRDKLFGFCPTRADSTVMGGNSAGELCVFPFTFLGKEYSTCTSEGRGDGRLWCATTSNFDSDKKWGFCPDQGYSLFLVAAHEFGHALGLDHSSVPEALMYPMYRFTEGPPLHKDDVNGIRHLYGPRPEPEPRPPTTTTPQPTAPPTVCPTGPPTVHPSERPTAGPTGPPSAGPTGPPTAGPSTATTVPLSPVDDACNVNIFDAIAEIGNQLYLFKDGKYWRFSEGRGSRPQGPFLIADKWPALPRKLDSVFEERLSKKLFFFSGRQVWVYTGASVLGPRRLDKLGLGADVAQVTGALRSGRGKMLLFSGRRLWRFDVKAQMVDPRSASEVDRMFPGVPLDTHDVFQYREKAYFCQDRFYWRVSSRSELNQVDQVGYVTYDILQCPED
pKi: −log10 of the molar value.
Mark Met for reported pKi of 5 or greater; mark Not met for anything smaller.

[[record]]
compound_smiles = "C[C@H](NC(=O)[C@H](Cc1ccccc1)NS(=O)(=O)c1ccc2ccccc2c1)C(=O)Nc1n[nH]c(=S)s1"
answer_label = "Not met"

[[record]]
compound_smiles = "C[C@H](NC(=O)[C@H](Cc1ccccc1)NS(=O)(=O)c1cccc([N+](=O)[O-])c1)C(=O)Nc1n[nH]c(=S)s1"
answer_label = "Not met"

[[record]]
compound_smiles = "C[C@H](NC(=O)[C@H](Cc1ccccc1)NS(=O)(=O)c1ccccc1[N+](=O)[O-])C(=O)Nc1n[nH]c(=S)s1"
answer_label = "Not met"

[[record]]
compound_smiles = "C[C@H](NC(=O)[C@H](Cc1ccccc1)NS(=O)(=O)c1cccc2ccccc12)C(=O)Nc1n[nH]c(=S)s1"
answer_label = "Not met"

[[record]]
compound_smiles = "Cc1ccccc1S(=O)(=O)NC(=O)N[C@@H](Cc1ccccc1)C(=O)N[C@@H](C)C(=O)Nc1n[nH]c(=S)s1"
answer_label = "Met"

[[record]]
compound_smiles = "C[C@H](NC(=O)[C@H](Cc1ccccc1)NS(=O)(=O)c1ccc(Cl)cc1)C(=O)Nc1n[nH]c(=S)s1"
answer_label = "Not met"

[[record]]
compound_smiles = "C[C@H](NC(=O)[C@H](Cc1ccccc1)NS(=O)(=O)c1ccccc1)C(=O)Nc1n[nH]c(=S)s1"
answer_label = "Not met"

[[record]]
compound_smiles = "C[C@H](NC(=O)[C@H](Cc1ccccc1)NS(=O)(=O)c1ccc(F)cc1)C(=O)Nc1n[nH]c(=S)s1"
answer_label = "Not met"

[[record]]
compound_smiles = "C[C@H](NC(=O)[C@H](Cc1ccccc1)NS(=O)(=O)c1cc(Cl)ccc1Cl)C(=O)Nc1n[nH]c(=S)s1"
answer_label = "Not met"

[[record]]
compound_smiles = "C[C@H](NC(=O)[C@H](Cc1ccccc1)NC(=O)NS(=O)(=O)c1ccc(F)cc1)C(=O)Nc1n[nH]c(=S)s1"
answer_label = "Met"


----------
- TARGET DESC: Neutrophil collagenase (Homo sapiens, UniProt P22894)
- Sequence (P22894 whole entry): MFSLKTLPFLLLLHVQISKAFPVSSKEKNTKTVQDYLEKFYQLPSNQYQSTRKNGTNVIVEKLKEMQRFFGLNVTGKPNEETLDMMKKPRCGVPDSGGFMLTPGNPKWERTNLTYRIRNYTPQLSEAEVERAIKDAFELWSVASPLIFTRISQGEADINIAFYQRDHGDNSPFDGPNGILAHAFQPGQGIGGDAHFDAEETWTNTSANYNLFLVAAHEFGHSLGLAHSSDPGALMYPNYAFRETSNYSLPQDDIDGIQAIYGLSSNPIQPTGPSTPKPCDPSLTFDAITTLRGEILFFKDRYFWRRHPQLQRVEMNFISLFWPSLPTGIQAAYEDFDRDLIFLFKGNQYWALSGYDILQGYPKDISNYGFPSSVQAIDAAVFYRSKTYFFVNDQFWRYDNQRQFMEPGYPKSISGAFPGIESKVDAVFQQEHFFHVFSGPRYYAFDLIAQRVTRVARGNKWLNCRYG
- ASSAY PROTOCOL: Inhibition of human matrix metalloprotease-8
ASSAY READOUT: Ki (µM)

[[record]]
compound_smiles = "C[C@H](NC(=O)[C@H](Cc1ccccc1)NS(=O)(=O)c1c(F)c(F)c(F)c(F)c1F)C(=O)Nc1n[nH]c(=S)s1"
assay_readout = "Ki"
quantitative_readout = 1

[[record]]
compound_smiles = "C[C@H](NC(=O)[C@H](Cc1ccccc1)NS(=O)(=O)c1ccc2ccccc2c1)C(=O)Nc1n[nH]c(=S)s1"
assay_readout = "Ki"
quantitative_readout = 45

[[record]]
compound_smiles = "Cc1ccc(S(=O)(=O)N[C@@H](Cc2ccccc2)C(=O)N[C@@H](C)C(=O)Nc2n[nH]c(=S)s2)cc1"
assay_readout = "Ki"
quantitative_readout = 23

[[record]]
compound_smiles = "C[C@H](NC(=O)[C@H](Cc1ccccc1)NS(=O)(=O)c1ccccc1[N+](=O)[O-])C(=O)Nc1n[nH]c(=S)s1"
assay_readout = "Ki"
quantitative_readout = 17

[[record]]
compound_smiles = "COc1ccc(S(=O)(=O)N[C@@H](Cc2ccccc2)C(=O)N[C@@H](C)C(=O)Nc2n[nH]c(=S)s2)cc1"
assay_readout = "Ki"
quantitative_readout = 20

[[record]]
compound_smiles = "C[C@H](NC(=O)[C@H](Cc1ccccc1)NS(=O)(=O)c1ccc([N+](=O)[O-])cc1)C(=O)Nc1n[nH]c(=S)s1"
assay_readout = "Ki"
quantitative_readout = 10

[[record]]
compound_smiles = "C[C@H](NC(=O)[C@H](Cc1ccccc1)NS(=O)(=O)c1cccc([N+](=O)[O-])c1)C(=O)Nc1n[nH]c(=S)s1"
assay_readout = "Ki"
quantitative_readout = 13

[[record]]
compound_smiles = "C[C@H](NC(=O)[C@H](Cc1ccccc1)NS(=O)(=O)c1cccc2c(N(C)C)cccc12)C(=O)Nc1n[nH]c(=S)s1"
assay_readout = "Ki"
quantitative_readout = 48

[[record]]
compound_smiles = "C[C@H](NC(=O)[C@H](Cc1ccccc1)NS(=O)(=O)c1cccc2cccnc12)C(=O)Nc1n[nH]c(=S)s1"
assay_readout = "Ki"
quantitative_readout = 39

[[record]]
compound_smiles = "C[C@H](NC(=O)[C@H](Cc1ccccc1)NC(=O)NS(=O)(=O)c1ccc(Cl)cc1)C(=O)Nc1n[nH]c(=S)s1"
assay_readout = "Ki"
quantitative_readout = 0.2

